B1: library; a variant is named by its letters at N, in order (parent)
chain: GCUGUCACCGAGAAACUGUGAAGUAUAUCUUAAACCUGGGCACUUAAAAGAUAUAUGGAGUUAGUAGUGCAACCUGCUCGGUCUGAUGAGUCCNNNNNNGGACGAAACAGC

variants of: B1; assay: normalized RNA/DNA level with ligand (relative to sTRSVctl = 100) (log10 (% of sTRSVctl)); HEK293T; ligand: cyclic di-GMP (c-di-GMP-II aptamer); ligand concentration (+) RNA-Seq: 1 mM; higher = less ribozyme self-cleavage, higher mRNA level; conditions: reporter: mCherry (pCS4076), ligand present: yes
Here the recorded normalized RNA/DNA level with ligand (log10) is given for each entry.
RESULT_TYPE: normalized RNA/DNA level with ligand (log10)

> print(dat)
       mut  data.value
 1  AAUAGA        1.58
 2  UUUAUC        1.83
 3  UGCUCU        1.92
 4  GAGUAU        1.86
 5  CGUCAG        1.92
 6  GACAGC        1.87
 7  GCGGCA         1.9
 8  CUCAUU         1.9
 9  UCCCUC        1.89
10  GUCGCG        1.82
11  UCAAUA        1.63
12  GGUUGC        1.87
13  GCAGUC        1.51
14  CACAUA        1.52
15  CGUCAU        1.64
16  AUUUUC        1.85
